# recombinant UMI read abundance (log10) listing for each entry below
Assay: recombinant UMI read abundance after kanamycin selection (control-corrected) (log10(CPM+1)); higher = more efficient recombination; extreme values may be limits of the assay; sequences stand for … in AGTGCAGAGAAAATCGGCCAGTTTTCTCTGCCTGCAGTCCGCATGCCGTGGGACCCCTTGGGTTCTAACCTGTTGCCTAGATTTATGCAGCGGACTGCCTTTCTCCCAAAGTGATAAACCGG…AGGTTGGTTTCACT; site = the 11-nt donor
measured_endpoint: recombinant UMI read abundance (log10)

> print(dat)
                             input.sequence                       measured.endpoint  readout.number
1  GTAGATTCATGGACCGGTTTTCCCGGTAATCCGTATTTGTT (site GTAGATTCTAA)  recombinant UMI read abundance (log10)            3.02
2  CACGCTCCATGGACCGGTTTTCCCGGTAATCCGTATTTGTC (site CACGCTCCTGA)  recombinant UMI read abundance (log10)            2.39
3  GTCACTGCATGGACCGGTTTTCCCGGTAATCCGTATTTGAT (site GTCACTGCTAT)  recombinant UMI read abundance (log10)            1.99
4  CTTCTATCATGGACCGGTTTTCCCGGTAATCCGTATTTGTA (site CTTCTGTCTTA)  recombinant UMI read abundance (log10)               0
5  CTCGCAACATGGACCGGTTTTCCCGGTAATCCGTATTTGTT (site CTCGCAACTAA)  recombinant UMI read abundance (log10)            1.96

====

Test: recombinant UMI read abundance after kanamycin selection (control-corrected) (log10(CPM+1)); higher = more efficient recombination; extreme values may be limits of the assay; sequences stand for … in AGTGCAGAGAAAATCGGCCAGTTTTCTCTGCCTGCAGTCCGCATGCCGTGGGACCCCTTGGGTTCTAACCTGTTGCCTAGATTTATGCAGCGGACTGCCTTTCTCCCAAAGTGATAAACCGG…AGGTTGGTTTCACT; site = the 11-nt donor
# recombinant UMI read abundance (log10) listing for each entry below
measured_endpoint: recombinant UMI read abundance (log10)

> print(dat)
                             input.sequence                       measured.endpoint  readout.number
1  TAGCCTTCATGGACCGGTTTTCCCGGTAATCCGTATTTGGG (site TAGCCTTCTTC)  recombinant UMI read abundance (log10)          0.0097
2  TGTCAAACATGGACCGGTTTTCCCGGTAATCCGTATTTGGG (site TGTCAAACTCC)  recombinant UMI read abundance (log10)         0.00984
3  GCAGTGTCATGGACCGGTTTTCCCGGTAATCCGTATTTGAT (site GCAGTGTCTAT)  recombinant UMI read abundance (log10)            2.82
4  ACGCGTACATGGACCGGTTTTCCCGGTAATCCGTATTTGGA (site ACGCGTACTTC)  recombinant UMI read abundance (log10)            1.12
5  CGGAGTCCATGGACCGGTTTTCCCGGTAATCCGTATTTGTC (site CGGAATCCTAA)  recombinant UMI read abundance (log10)               0
6  ACAGTATCATGGACCGGTTTTCCCGGTAATCCGTATTTGCA (site ACATGATCTTG)  recombinant UMI read abundance (log10)            1.29
7  TGTTGGACATGGACCGGTTTTCCCGGTAATCCGTATTTGTG (site TGTTGGACTCA)  recombinant UMI read abundance (log10)           0.117
8  ACATGTACATGGACCGGTTTTCCCGGTAATCCGTATTTGTG (site ACATTTACTCA)  recombinant UMI read abundance (log10)               0
9  CCCCAAACATGGACCGGTTTTCCCGGTAATCCGTATTTGTA (site CCCCAAACTTA)  recombinant UMI read abundance (log10)            0.19

====

Assay: recombinant UMI read abundance after kanamycin selection (control-corrected) (log10(CPM+1)); higher = more efficient recombination; extreme values may be limits of the assay; sequences stand for … in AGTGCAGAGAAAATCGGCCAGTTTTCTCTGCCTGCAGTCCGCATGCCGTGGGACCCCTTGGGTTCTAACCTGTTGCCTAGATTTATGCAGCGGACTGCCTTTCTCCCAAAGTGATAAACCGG…AGGTTGGTTTCACT; site = the 11-nt donor
# recombinant UMI read abundance (log10) >= 0.9 gives label 1, anything below gives label 0

> print(dat)
                             input.sequence  assigned.label
1  CGATCATCATGGACCGGTTTTCCCGGTAATCCGTATTTGCC (site CGATCATCTCG)         label 0
2  ACCAGCCCATGGACCGGTTTTCCCGGTAATCCGTATTTGCT (site ACCAGCCCTAG)         label 0
3  TATGCTACATGGACCGGTTTTCCCGGTAATCCGTATTTGGC (site TATGCTACTGC)         label 0
4  TAAGGTGCATGGACCGGTTTTCCCGGTAATCCGTATTTGTA (site TAAGGTGCTTA)         label 1
5  TTTGAGACATGGACCGGTTTTCCCGGTAATCCGTATTTGGA (site TTTGAGACTTC)         label 0
6  TCTTCAGCATGGACCGGTTTTCCCGGTAATCCGTATTTGTG (site TCTTCAGCTCA)         label 0
7  GGGACTACATGGACCGGTTTTCCCGGTAATCCGTATTTGCA (site GGGACTACTTG)         label 1
8  ATGGAAACATGGACCGGTTTTCCCGGTAATCCGTATTTGCA (site CTGGAAACTTG)         label 1

====

# recombinant barcode read abundance (log10) listing for each entry below
Test: recombinant barcode read abundance after kanamycin selection (control-corrected) (log10(CPM+1)); higher = more efficient recombination; sequences stand for … in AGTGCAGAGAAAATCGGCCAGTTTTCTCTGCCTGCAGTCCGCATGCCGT…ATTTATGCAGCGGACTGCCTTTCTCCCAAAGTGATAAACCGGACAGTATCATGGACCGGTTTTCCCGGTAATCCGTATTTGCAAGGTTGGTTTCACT; site = the 11-nt target
measured_endpoint: recombinant barcode read abundance (log10)

> print(dat)
                              input.sequence  result
 1  AGGCGGTCTTGGGTTCTAACCTGTTGCTTAC [AGGCGGTCTAA_LTGcore_CT_RTGcore_GT] (site AGGCGGTCTAA) (LTG core: CT, RTG core: GT)    1.26
 2  CGCGCCCCCTGGGTTCTAACCTGTTGCGGAG [CGCGCCCCTCC_LTGcore_CC_RTGcore_CT] (site CGCGCCCCTCC) (LTG core: CC, RTG core: CT)   0.158
 3  AGGCGGGCTTGGGTTCTAACCTGTTGCGGCC [AGGCGGGCTCC_LTGcore_CT_RTGcore_GG] (site AGGCGGGCTCC) (LTG core: CT, RTG core: GG)   0.367
 4  ATGCTTTGTTGGGTTCTAACCTGTTGCCTAG [ATGCTTTCTAG_LTGcore_GT_RTGcore_CT] (site ATGCTTTCTAG) (LTG core: GT, RTG core: CT)  0.0408
 5  GCGCGACACTGGGTTCTAACCTGTTGCTTAG [GCGCGACCTAA_LTGcore_AC_RTGcore_CT] (site GCGCGACCTAA) (LTG core: AC, RTG core: CT)   0.131
 6  TGTATTCACTGGGTTCTAACCTGTTGCCTAG [TGTATTCCTAG_LTGcore_AC_RTGcore_CT] (site TGTATTCCTAG) (LTG core: AC, RTG core: CT)  0.0447
 7  AGGCCTCCTTGGGTTCTAACCTGTTGCCTCC [AGGCCTCCTAG_LTGcore_CT_RTGcore_GG] (site AGGCCTCCTAG) (LTG core: CT, RTG core: GG)   0.102
 8  GAGTCCACTTGGGTTCTAACCTGTTGCGTCC [GAGTCCACTAC_LTGcore_CT_RTGcore_GG] (site GAGTCCACTAC) (LTG core: CT, RTG core: GG)   0.482
 9  AGGAGGTTGTGGGTTCTAACCTGTTGCCTCA [AGGAGGTCTAG_LTGcore_TG_RTGcore_TG] (site AGGAGGTCTAG) (LTG core: TG, RTG core: TG)  0.0756
10  AGGAGGTCCTGGGTTCTAACCTGTTGCCTGG [AGGAGGTCTAG_LTGcore_CC_RTGcore_CC] (site AGGAGGTCTAG) (LTG core: CC, RTG core: CC)   0.227
11  GTCGCCCCTTGGGTTCTAACCTGTTGCTAGT [GTCGCCCCTTA_LTGcore_CT_RTGcore_AC] (site GTCGCCCCTTA) (LTG core: CT, RTG core: AC)   0.644
